# Test system: NCI-H226 lung
# assay-comment: NCI tumour cell line growth inhibition, 48 h
Overview of reported TGI across a group of compounds:
property-name: TGI (µM)

>>> test_value("C[C@H](N)C(=O)Nc1ccc(-c2nc3ccccc3s2)cc1")
97.8
>>> test_value("CN(C)Cc1cc(C(=O)/C=C/c2ccccc2Cl)cc(CN(C)C)c1O")
48.2
>>> test_value("COc1ccc2c(c1)[C@@]13CCCC[C@H]1[C@@H](C2)N(C)CC3=O")
57.9
>>> test_value("Cc1ccc(C2(O)CC(c3ccc([N+](=O)[O-])o3)=NN2C(=O)COc2ccc(Cl)cc2)cc1 (centres undefined)")
39.7

----------
# Tested on: RXF 393 renal
# assay-comment: NCI tumour cell line growth inhibition, 48 h
This section presents compounds with their documented log10 of TGI values.
property-name: log10 of TGI (log10 of the value in µM)

>>> test_value("O=C(Nc1ccc(-c2ccccc2)cc1)C1CCN(S(=O)(=O)c2ccccc2Cl)CC1")
0.70
>>> test_value("CCOc1ccc(-c2nc(-c3oc4ccccc4c(=O)c3OC(C)=O)cs2)cc1")
0.86
>>> test_value("COc1ccc2c(c1)C(C)Cc1c(ncnc1-n1c(C)nc3ccccc31)N2C (stereo not given)")
0.96
>>> test_value("CCc1ccccc1NC(=O)c1sc2nc3c(cc2c1N)C(=O)CCC3")
-0.07
>>> test_value("C=CCSS/C=C/CS(=O)CC=C (stereo not given)")
1.75
>>> test_value("CC(=O)c1ccc2c3c1[C@@H]1O[C@@H]1c1cccc(c1-3)[C@@H]1O[C@H]21")
1.41
>>> test_value("CC1(C)O/C(=C\\c2ccccc2)C(=O)/C(=C/c2ccccc2)O1")
1.68
>>> test_value("Cc1ccc([C@H]2CC(=O)C[C@H](c3ccc(C)cc3)C23C(=O)c2ccccc2C3=O)cc1")
1.59
>>> test_value("O=c1oc2ccccc2c(Nc2ccc3c(c2)Oc2ccccc2O3)c1[N+](=O)[O-]")
1.54
>>> test_value("C[C@]12CC[C@@H]3c4ccc(O)cc4CC[C@H]3[C@@H]1CC[C@@H]2NS(=O)(=O)c1cccc(F)c1")
0.87
>>> test_value("COC(=O)/C(C)=C/[N+](=O)[O-]")
1.55
>>> test_value("Cc1ccc(/C(O)=C/C(=O)C(=O)/C=C(\\O)c2ccc(C)cc2C)c(C)c1")
0.63
>>> test_value("CCCCC1(CN2CCOCC2)S/C(=N/c2nc(CC(=O)OCC)cs2)NC1=O (stereo not given)")
1.94
>>> test_value("Cc1cc(NS(=O)(=O)c2ccc(Nc3c4ccccc4nc4c(C(=O)NCCN(C)C)cccc34)cc2)no1")
1.36
>>> test_value("O=C1c2ccccc2CCCCCCCCCCC12OCCCO2")
1.53
>>> test_value("Cc1cc(I)cc(CN(C)CCCN2CCOCC2)c1O")
1.58
>>> test_value("CC(=O)O[C@H]1C#C/C=C\\C#CC[C@@H]2C(=O)N[C@@H]12")
1.87
>>> test_value("[Au+].[Au+].[Au+].[c-]1nccn1Cc1ccccc1.[c-]1nccn1Cc1ccccc1.[c-]1nccn1Cc1ccccc1")
0.76

----------
# Tested on: OVCAR-8 ovarian
# assay-comment: NCI tumour cell line growth inhibition, 48 h
property-name: TGI (µM)

>>> test_value("CCOC(=O)/C=C(\\C(=O)OCC)n1cc(C)c(=O)n(Cc2cnnn2CCCCOC(C)=O)c1=O")
15.6
>>> test_value("COc1ccc2ncn(-c3cc(O[C@H](C)c4ccccc4Cl)c(C(N)=O)s3)c2c1")
20.8
>>> test_value("Cc1ccc(S(=O)(=O)NCCNc2nccc(-c3c(-c4ccc(F)cc4)nc4sccn34)n2)cc1")
53.8
>>> test_value("CC(=O)c1ccc2c3c1[C@@H]1O[C@@H]1c1cccc(c1-3)[C@@H]1O[C@H]21")
18.1
>>> test_value("Cc1cc(N/N=C/c2nc(-c3ccc(Br)cc3)oc2C)c2cc(Br)ccc2n1")
6.66
>>> test_value("COC(=O)/C(C=O)=C/Sc1ccccc1")
31.8
>>> test_value("COc1ccc2c(c1)C(C)Cc1c(ncnc1-n1c(C)nc3ccccc31)N2C (stereo not given)")
40.1
>>> test_value("NC1=NS(=O)(=O)Nc2nc(-c3ccc([N+](=O)[O-])o3)[nH]c21")
89.3
